# Test system: DAF-12 nuclear receptor (Haemonchus contortus)
# Assay: hcDAF-12 driven luciferase reporter activation – cell-based, luminescence, HEK293, lit1-tk-luc reporter, primary screen (AID 652067);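 also: 100% = response to 3 µM Δ7-dafachronic acid high control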
# Setup conditions: HEK293 hcDAF-12 lit1-tk-luc reporter, at 6.8 µM, stronger effect = higher value, 0% DMSO, 100% Δ7-dafachronic acid
In all, about 370,000 compounds went through this assay and about 5,400 (1.5%) were called active. This is one part of a sample in which actives are shown more often than they occur.
Measured parameter: activation (%)

{"columns": ["Compound", "Observed"],
 "data": [
  ["COc1ccc(-c2ccccc2C2Cc3nnccc3CN2C(=O)Nc2ccccc2)cc1 (stereo unspecified)", -1.19],
  ["O=C(CCCCCN1C(=O)C2C3C=CC(C3)C2C1=O)Nc1ccccn1 (stereo unspecified)", 2.04],
  ["Cc1csc(SCC(=O)Nc2ccc(C)c(S(=O)(=O)N(C)C)c2)n1", -0.11],
  ["CCOC(=O)C1CSCCS(=O)(=O)N1Cc1ccc(Cl)cc1 (stereo unspecified)", -2.38],
  ["Cc1sc2nc(SCC(=O)c3ccc(O)c(O)c3)n(Cc3ccco3)c(=O)c2c1C", -0.45],
  ["Cc1csc(SCC(=O)Nc2sccc2C#N)n1", 6.55],
  ["CCOC(=O)c1cc2c(nc1NC(=S)Nc1ccccc1)CC(C)(CC)OC2 (stereo unspecified)", -0.86],
  ["Cc1cc(O)cc(O)c1C(=O)Cc1cnn(-c2ccccc2)c1", -1.81],
  ["Cc1ccc(NC(=O)CNCc2ccccn2)cc1S(=O)(=O)N(C)C", 0.26],
  ["O=C(c1cnn(-c2ccc(Cl)cc2)c1)c1ccccc1O", 6.75],
  ["CCN(c1ccccc1)S(=O)(=O)c1cc(C(=O)NCc2ccccn2)ccc1C", -0.36]
]}

* * *

# Test system: DAF-12 nuclear receptor (Haemonchus contortus)
# Assay: hcDAF-12 driven luciferase reporter activation – cell-based, luminescence, HEK293, lit1-tk-luc reporter, primary screen (AID 652067);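 also: 100% = response to 3 µM Δ7-dafachronic acid high control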
# Setup conditions: HEK293 hcDAF-12 lit1-tk-luc reporter, at 6.8 µM, stronger effect = higher value, 0% DMSO, 100% Δ7-dafachronic acid
Hit rate of the full screen: of about 370,000 compounds, about 5,400 (1.5%) were called active. The full list was thinned out, with actives kept by preference.

{"columns": ["Compound", "activation [%]"],
 "data": [
  ["Cc1oc(CC(C)C)c(CN2CCCC2)c1C(=O)O", -1.65],
  ["CCOC(=O)[C@]12CCCCC/C=C\\1N(Cc1ccc(OC)cc1)C(=O)[C@H]2CC(=O)N1CCOCC1", 4.16],
  ["c1ccc(-n2ncc3c(N4CCCC4)ncnc32)cc1", 6.43],
  ["S=C(Nc1ccccc1)Nc1ccc2ccccc2c1", 6.41],
  ["O=C(Nc1ccc2ccccc2c1)Nc1ccc2snnc2c1", -0.5],
  ["O=S(=O)(NC(=S)Nc1ccccc1)c1ccc(F)cc1", 2.29],
  ["CCOc1ccc(OCc2ccc(C(=O)Nc3cccc(C)n3)o2)cc1", -1.6],
  ["COc1ccc2c(c1)CN1CN(CCc3ccccc3)S(=O)(=O)CC21 (stereo unspecified)", -2.08],
  ["COC(=O)c1ccc(NC(=S)Nc2cccc(C)n2)cc1", 1.84],
  ["CC(Sc1ncnc2c1cnn2-c1ccccc1)C(=O)Nc1ccc(N2CCOCC2)cc1 (stereo unspecified)", 1.44],
  ["Cc1cccc(NC(=O)c2ccc3ccccc3n2)n1", 9.6]
]}

Reference source for all entries: PubChem BioAssay AID652067
